Answer each item with its documented cytotoxicity at 70.5 h.
Procedure Summary: Human HepG2 cell viability assay in 384 well format
Assay type: toxicity, cell-based
Parameters: dose 125 nL, time 70.5 hour; concentration not given beside the values
Cond: HepG2 cells, read-out: Inhibition
Put down the number, then write its unit next to it.

Reported cytotoxicity at 70.5 h, compound Cc1ccccc1CNC(=O)Cn1nc(-c2ccc(F)cc2)oc1=O : ____
-9.26%

Entry under review: CN(Cc1cccs1)C1CCC[C@@H]2CN(C(N)=O)C[C@H]12 (stereo not given in full) . Reported cytotoxicity at 70.5 h?
-10.5%

Bench note: what cytotoxicity at 70.5 h did CN(CC(=O)N1CCN(c2ccccc2F)CC1)c1cnccn1 show?
-18.2%

Consider the compound N#Cc1cc2c(nc1O)CCCCC2 and give its measured cytotoxicity at 70.5 h.
-2.17%

Would you mind telling me what cytotoxicity at 70.5 h value was observed for OC1(CN2CCCC2)COCCN(c2noc(-c3ccccc3)n2)C1 (stereo not given) ?
-11%

Which value of cytotoxicity at 70.5 h has been reported for CC(=O)N1CCCN(C(=O)NCc2cccnc2OC(C)C)CC1 in the records?
-5.61%

Look up cytotoxicity at 70.5 h for this compound: CNc1ncc(CN(C)Cc2cc3n(n2)CCNC3)cn1
-9%

Param item = c1ccc2oc(CN3CCCC3Cn3cncn3)nc2c1 (stereo not given) ; retrieve measured cytotoxicity at 70.5 h.
-6.61%

Fill blank: measured cytotoxicity at 70.5 h of the compound O=C(Cn1cc(Cl)cn1)N1CCNC1=O is ____.
48.7%

If you can, please state the reported cytotoxicity at 70.5 h value of COc1nc2c(cc1C(=O)NCCCc1nnc(N)s1)CCC2 .
-1.23%

What measured cytotoxicity at 70.5 h goes with CCOC(=O)C1CCN(C(=O)c2cc(F)ccc2-n2cnnn2)CC1 ?
3.28%

Suppose we examine the compound Cc1ccc(N2CCCC(NCc3nnc(-c4ccco4)o3)C2)nn1 (stereo not given) ; what cytotoxicity at 70.5 h value has been reported?
-13.2%

Quick one: cytotoxicity at 70.5 h of COCCCN1CC2(CCCN(c3ncnc4[nH]ccc34)C2)CCC1=O (stereo not given) ?
-6.33%

Could you share which cytotoxicity at 70.5 h value was measured for CC(CCNC(=O)NCCc1ccncc1)c1ccccc1 (stereo not given) ?
-0.345%

What cytotoxicity at 70.5 h value was documented for this compound, CC(C)C1=NOC(c2nc(-c3cccc(Cl)c3)no2)C1 (stereo not given) ?
8.08%

# input compound: COc1ccc(S(=O)(=O)N2CCOC(Cn3ccnc3)C2)cc1 (stereo not given) ; wanted: its cytotoxicity at 70.5 h
-8.46%

So what's the measured cytotoxicity at 70.5 h for this one? CNc1snc(C)c1C(=O)N1CCCC(n2cccn2)C1 (stereo not given)
-15%

Any idea what cytotoxicity at 70.5 h was measured for COc1ccc(OCCN2CCN(Cc3nccn3C)CC2)cc1 ?
12.8%

Looking for the measured cytotoxicity at 70.5 h of CN(C)CCn1ccc(NC(=O)NC(C)(C)c2nccs2)n1 , can you help?
-12.6%

Consider the compound CC(O)CN1CCC(CN(C)CCC(=O)NC2CCCC2)CC1 (stereo not given) and give its measured cytotoxicity at 70.5 h.
-1.49%

Query: cytotoxicity at 70.5 h; subject: Cc1ccc(NC(=O)c2ncc(C(N)=O)cc2Cl)cc1F
-87.6%

Which cytotoxicity at 70.5 h is reported for this compound? CC1CCc2nc(O)c(C(=O)NCCN(C)C)cc2C1 (stereo not given)
-18.1%

Requested field: cytotoxicity at 70.5 h. Item: CCS(=O)(=O)Nc1ccn(Cc2cccc(Cl)c2)n1
-4.96%

Need cytotoxicity at 70.5 h of Nc1nc(O)cc(N2CCC(c3cc(Cc4ccccc4)n[nH]3)CC2)n1 , thanks.
-3.99%

Entry Cc1nn(C)c(Cl)c1C(=O)NCC(c1ccsc1)N(C)C (stereo not given) has what cytotoxicity at 70.5 h?
-21.3%

* * *

Procedure Summary: Human HepG2 cell viability assay in 384 well format
Assay type: toxicity, cell-based
Parameters: dose 125 nL, time 70.5 hour; concentration not given beside the values
Cond: HepG2 cells, read-out: Inhibition
For each record, write down the corresponding cytotoxicity at 70.5 h.
Give the figure together with its unit, number first.

// lookup cytotoxicity at 70.5 h for Cc1ncsc1CN1CCN(C)C2(CCC(=O)N(CCO)CC2)C1 (stereo unspecified)
3.92%

Name the reported cytotoxicity at 70.5 h value associated with the compound CN(C)CCN(Cc1ccc(Cl)cc1)C(=O)c1ccn(C)c(=O)c1
-5.83%

I would be grateful if you could share the reported cytotoxicity at 70.5 h for Cc1cc(C)n(CC2CCCN2C(=O)c2c[nH]c(=O)c(Cl)c2)n1 (stereo unspecified) .
-11.8%

Name the recorded cytotoxicity at 70.5 h for CCc1cc(C(C)Nc2nc(-c3cccnc3)nc3c2CNC3)on1 (stereo unspecified) .
-5.83%

Look up cytotoxicity at 70.5 h: c1coc(CN2C[C@@H]3OCCN(CCN4CCCC4)[C@@H]3C2)c1
-7.43%

State the recorded cytotoxicity at 70.5 h for this entry: Fc1cc(CN2CCCC2Cn2cncn2)c2ncccc2c1 (stereo unspecified)
4.94%

* * *

Procedure Summary: Human HepG2 cell viability assay in 384 well format
Assay type: toxicity, cell-based
Parameters: dose 125 nL, time 70.5 hour; concentration not given beside the values
Cond: HepG2 cells, read-out: Inhibition
Can you tell me cytotoxicity at 70.5 h for the items I'm about to list?
Return type: number; implicit unit %.

cytotoxicity at 70.5 h lookup needed for CCN(Cc1cccnc1)CC1CCCO1 (configuration not stated) , thanks.
-0.83

Given the compound Cc1cnn(CC2CCCCN2Cc2nc(N)c3ccccc3n2)c1 (configuration not stated) , what is its reported cytotoxicity at 70.5 h?
-6.17

Given the compound Cc1ccc(F)c2c1CCCN2C(=O)Cc1c(C)nn(C)c1C , what is its reported cytotoxicity at 70.5 h?
-5.29

Item Cc1ccc(CC(=O)NCC(Cc2ccc(F)cc2)C(N)=O)cn1 (configuration not stated) has what recorded cytotoxicity at 70.5 h?
-0.982

Endpoint output: cytotoxicity at 70.5 h of CC(C)c1cc(C(=O)N2CCOC3(CCNCC3)C2)no1 . Value?
-5.65

Give its cytotoxicity at 70.5 h value. Item: CCn1c(CN(C)C)nnc1C1CCN(Cc2ccncc2)CC1
-6.3

What does the record list as cytotoxicity at 70.5 h for CN(Cc1ccco1)C(=O)C1CSCN1C(=O)c1cccs1 (configuration not stated) ?
12.5

I am curious: what cytotoxicity at 70.5 h value has been reported for O=C(O)C(F)(F)F.O=C1COC2(CCN(CC3CCC3)CC2)CN1c1cncnc1 ?
61.5

Can you share its cytotoxicity at 70.5 h? I mean this compound: c1cc(CNc2cnc(C3CCCN3)cn2)ccn1 (configuration not stated)
-1.63

Entry under review: O=C(C[C@@H]1COC[C@H]2CN(Cc3cccnc3)C[C@@H]12)NCC1CC1 . Reported cytotoxicity at 70.5 h?
-4.39

Name the recorded cytotoxicity at 70.5 h for OCC1CCCN1c1cc(NCc2cccc3cccnc23)ncn1 (configuration not stated) .
3.27

Given Cc1cc(NC(C)Cn2cccn2)n2nccc2n1 (configuration not stated) , state its recorded cytotoxicity at 70.5 h.
-12.5

* * *

Procedure Summary: Human HepG2 cell viability assay in 384 well format
Format: toxicity, cell-based
Parameters: dose 125 nL, time 70.5 hour; concentration not given beside the values
Cond: HepG2 cells, read-out: Inhibition
Endpoint Label: cytotoxicity at 70.5 h (%)
Give the quantity in %, number only.

# lookup: cytotoxicity at 70.5 h of CS(=O)(=O)CCN1CCN(c2ccc(Cl)cn2)CC1
1.44

What does the record list as cytotoxicity at 70.5 h for Cc1cncc(C(=O)N2CCCC(O)(CN(C)C)CC2)c1 (stereo unspecified) ?
7.68

For C=C(C)COc1ccccc1CNC(CC)c1ccnn1C (stereo unspecified) , what is its reported cytotoxicity at 70.5 h?
-5.65

Entry CC(C)Nc1nc2c(c(N(C)C)n1)CCN(C(=O)c1cc[nH]n1)CC2 : reported cytotoxicity at 70.5 h = ?
-10.4

What measured cytotoxicity at 70.5 h goes with COC1CCCN(C2CCN(c3cccc(-c4csc(C)n4)c3)CC2)C1 (stereo unspecified) ?
-1.69

For the compound shown here, CC(C)(C)C(=O)NCCC(=O)NC(C)(C)c1ccc2c(c1)OCCO2 , give the reported cytotoxicity at 70.5 h.
1.98

Can you look up the measured cytotoxicity at 70.5 h of O=C(c1ccccc1F)N1CCN(c2ccc(-n3cccc3)nn2)CC1 for me?
-8.46

If you can, please state the reported cytotoxicity at 70.5 h value of CC(C)CNC(=O)c1cc2c(s1)CCN2S(C)(=O)=O .
-10.9

Request the reported cytotoxicity at 70.5 h associated with CC(O)CN(CC(=O)NC(=O)NCC(F)(F)F)c1ccccc1 (stereo unspecified)
-11.1

Request the reported cytotoxicity at 70.5 h associated with CC(=O)N1CCN(CC(N)=O)CC(COc2ccccc2)C1 (stereo unspecified)
6.55

Recorded cytotoxicity at 70.5 h of COc1cc(N2CCC3(CCN(C(=O)c4cccnc4)CC3)C2)ncn1 , please.
-6.37
